- Test system: Trichophyton rubrum
- TEST_SUMMARY: Antimicrobial activity against Trichophyton rubrum MTCC 296 assessed as diameter of growth inhibition zone at 25 ug/ml after 48-96 hr by agar cup diffusion method
- Assay type: functional
- CONDITION_LABEL: read-out: DIZ
compounds and their reported zone of inhibition at 25 µg/mL
API: value field is a number in mm; no unit string.

Solved entries (count: 6):
# MOLECULE_SMILES, TARGET_SYSTEM, zone of inhibition at 25 µg/mL [mm]
data = [
    ("O=C(/C=C/c1ccc2ccccc2c1)C1C(=O)NC(=S)NC1=O", "Trichophyton rubrum", 18),
    ("O=C(/C=C/c1ccccc1)C1C(=O)NC(=S)NC1=O", "Trichophyton rubrum", 20),
    ("O=C(/C=C/c1ccccc1O)C1C(=O)NC(=S)NC1=O", "Trichophyton rubrum", 18),
    ("COc1ccc(/C=C/C(=O)C2C(=O)NC(=S)NC2=O)cc1", "Trichophyton rubrum", 19),
    ("Cc1ccc(/C=C/C(=O)C2C(=O)NC(=S)NC2=O)cc1", "Trichophyton rubrum", 19),
    ("O=C(/C=C/c1cccc([N+](=O)[O-])c1)C1C(=O)NC(=S)NC1=O", "Trichophyton rubrum", 18),
]

Req: Endpoint output: zone of inhibition at 25 µg/mL of "O=C(/C=C/c1ccc(Cl)cc1)C1C(=O)NC(=S)NC1=O" . Value?
Resp: 18

Req: Endpoint output: zone of inhibition at 25 µg/mL of "COc1ccc(/C=C/C(=O)C2C(=O)NC(=S)NC2=O)cc1OC" . Value?
Resp: 21

Req: Endpoint output: zone of inhibition at 25 µg/mL of "O=C(/C=C/c1ccc([N+](=O)[O-])cc1)C1C(=O)NC(=S)NC1=O" . Value?
Resp: 20

Req: Endpoint output: zone of inhibition at 25 µg/mL of "O=C(/C=C/c1ccc(O)cc1)C1C(=O)NC(=S)NC1=O" . Value?
Resp: 22

Req: Endpoint output: zone of inhibition at 25 µg/mL of "O=C(/C=C/c1ccccc1Cl)C1C(=O)NC(=S)NC1=O" . Value?
Resp: 19

====

compounds and their reported zone of inhibition at 25 µg/mL
- System: Staphylococcus aureus
- TEST_SUMMARY: Antimicrobial activity against Staphylococcus aureus MTCC 96 assessed as diameter of growth inhibition zone at 25 ug/ml after 18-24 hr by agar cup diffusion method
- Format: functional
- CONDITION_LABEL: read-out: DIZ
Be sure to follow the number with its unit.

Req: Endpoint output: zone of inhibition at 25 µg/mL of "O=C(/C=C/c1ccccc1O)C1C(=O)NC(=S)NC1=O" . Value?
Resp: 11 mm

Req: Endpoint output: zone of inhibition at 25 µg/mL of "O=C(/C=C/c1ccc([N+](=O)[O-])cc1)C1C(=O)NC(=S)NC1=O" . Value?
Resp: 11 mm

Req: Endpoint output: zone of inhibition at 25 µg/mL of "O=C(/C=C/c1cccc([N+](=O)[O-])c1)C1C(=O)NC(=S)NC1=O" . Value?
Resp: 14 mm

Req: Endpoint output: zone of inhibition at 25 µg/mL of "O=C(/C=C/c1ccc(O)cc1)C1C(=O)NC(=S)NC1=O" . Value?
Resp: 10 mm

Req: Endpoint output: zone of inhibition at 25 µg/mL of "O=C(/C=C/c1ccccc1Cl)C1C(=O)NC(=S)NC1=O" . Value?
Resp: 10 mm

====

- Test system: Trichophyton rubrum
- TEST_SUMMARY: Antimicrobial activity against Trichophyton rubrum MTCC 296 assessed as diameter of growth inhibition zone at 250 ug/ml after 48-96 hr by agar cup diffusion method
- Format: functional
- CONDITION_LABEL: read-out: DIZ
molecules and their reported zone of inhibition at 250 µg/mL
API: value field is a number in mm; no unit string.

Solved entries (count: 10):
# MOLECULE_SMILES, zone of inhibition at 250 µg/mL (mm)
rows = [
    ("COc1ccc(/C=C/C(=O)C2C(=O)NC(=S)NC2=O)cc1OC", 24),
    ("O=C(/C=C/c1ccccc1Cl)C1C(=O)NC(=S)NC1=O", 21),
    ("O=C(/C=C/c1ccc2ccccc2c1)C1C(=O)NC(=S)NC1=O", 23),
    ("COc1ccc(/C=C/C(=O)C2C(=O)NC(=S)NC2=O)cc1", 22),
    ("O=C(/C=C/c1cccc([N+](=O)[O-])c1)C1C(=O)NC(=S)NC1=O", 27),
    ("O=C(/C=C/c1ccc([N+](=O)[O-])cc1)C1C(=O)NC(=S)NC1=O", 25),
    ("O=C(/C=C/c1ccc(O)cc1)C1C(=O)NC(=S)NC1=O", 24),
    ("O=C(/C=C/c1ccc(Cl)cc1)C1C(=O)NC(=S)NC1=O", 22),
    ("O=C(/C=C/c1ccccc1)C1C(=O)NC(=S)NC1=O", 25),
    ("O=C(/C=C/c1ccccc1O)C1C(=O)NC(=S)NC1=O", 22),
]

Req: Endpoint output: zone of inhibition at 250 µg/mL of "Cc1ccc(/C=C/C(=O)C2C(=O)NC(=S)NC2=O)cc1" . Value?
Resp: 25

====

- Test system: Escherichia coli
- TEST_SUMMARY: Antimicrobial activity against Escherichia coli MTCC 443 assessed as diameter of growth inhibition zone at 50 ug/ml after 18-24 hr by agar cup diffusion method
- Assay type: functional
- CONDITION_LABEL: read-out: DIZ
compounds and their reported zone of inhibition at 50 µg/mL
API: value field is a number in mm; no unit string.

Solved entries (count: 10):
# MOLECULE_SMILES, UNIT_OF_MEASURE, zone of inhibition at 50 µg/mL
measured = [
    ("O=C(/C=C/c1ccc(O)cc1)C1C(=O)NC(=S)NC1=O", "mm", 17),
    ("O=C(/C=C/c1ccc([N+](=O)[O-])cc1)C1C(=O)NC(=S)NC1=O", "mm", 15),
    ("O=C(/C=C/c1ccccc1Cl)C1C(=O)NC(=S)NC1=O", "mm", 14),
    ("O=C(/C=C/c1ccc(Cl)cc1)C1C(=O)NC(=S)NC1=O", "mm", 14),
    ("Cc1ccc(/C=C/C(=O)C2C(=O)NC(=S)NC2=O)cc1", "mm", 15),
    ("COc1ccc(/C=C/C(=O)C2C(=O)NC(=S)NC2=O)cc1", "mm", 18),
    ("O=C(/C=C/c1ccc2ccccc2c1)C1C(=O)NC(=S)NC1=O", "mm", 16),
    ("COc1ccc(/C=C/C(=O)C2C(=O)NC(=S)NC2=O)cc1OC", "mm", 16),
    ("O=C(/C=C/c1cccc([N+](=O)[O-])c1)C1C(=O)NC(=S)NC1=O", "mm", 17),
    ("O=C(/C=C/c1ccccc1)C1C(=O)NC(=S)NC1=O", "mm", 15),
]

API: the following record is the query input.
Req: Endpoint output: zone of inhibition at 50 µg/mL of "O=C(/C=C/c1ccccc1O)C1C(=O)NC(=S)NC1=O" . Value?
Resp: 15

====

- Tested on: Candida albicans
- TEST_SUMMARY: Antimicrobial activity against Candida albicans MTCC 227 assessed as diameter of growth inhibition zone at 100 ug/ml after 48-96 hr by agar cup diffusion method
- Type: functional
- CONDITION_LABEL: read-out: DIZ
compounds and their reported zone of inhibition at 100 µg/mL
API: value field is a number in mm; no unit string.

Solved entries (count: 10):
# MOLECULE_SMILES, UNIT_OF_MEASURE, zone of inhibition at 100 µg/mL
rows = [
    ("O=C(/C=C/c1ccc(O)cc1)C1C(=O)NC(=S)NC1=O", "mm", 23),
    ("COc1ccc(/C=C/C(=O)C2C(=O)NC(=S)NC2=O)cc1OC", "mm", 25),
    ("O=C(/C=C/c1ccccc1Cl)C1C(=O)NC(=S)NC1=O", "mm", 22),
    ("O=C(/C=C/c1cccc([N+](=O)[O-])c1)C1C(=O)NC(=S)NC1=O", "mm", 23),
    ("O=C(/C=C/c1ccc(Cl)cc1)C1C(=O)NC(=S)NC1=O", "mm", 22),
    ("Cc1ccc(/C=C/C(=O)C2C(=O)NC(=S)NC2=O)cc1", "mm", 21),
    ("O=C(/C=C/c1ccc2ccccc2c1)C1C(=O)NC(=S)NC1=O", "mm", 24),
    ("O=C(/C=C/c1ccc([N+](=O)[O-])cc1)C1C(=O)NC(=S)NC1=O", "mm", 25),
    ("COc1ccc(/C=C/C(=O)C2C(=O)NC(=S)NC2=O)cc1", "mm", 24),
    ("O=C(/C=C/c1ccccc1)C1C(=O)NC(=S)NC1=O", "mm", 22),
]

API: the following record is the query input.
Req: Endpoint output: zone of inhibition at 100 µg/mL of "O=C(/C=C/c1ccccc1O)C1C(=O)NC(=S)NC1=O" . Value?
Resp: 22
